These data points were gathered from ChEMBL document CHEMBL1201862.

- Tested on: SK-MEL-2
- Assay Summary: NCI tumour cell line growth inhibition, 48 h
Calls of active or inactive are those of the source. No stated cut-off is given here; in the data, active = GI50 up to about 1.1 µM and inactive = higher.
Assay Endpoint: GI50

Please review the following examples before continuing.
INSERT INTO measurements (compound, assay_endpoint, data_value) VALUES
  ('CCc1n[nH]c(=O)n1N1C(=O)C2CCCCC2C1=O (configuration not stated)', 'GI50', '> 100 µM (inactive)'),
  ('CCOC(=O)CNC1=Nc2ccccc2C(=O)N2CSCC12 (configuration not stated)', 'GI50', '> 100 µM (inactive)'),
  ('CC(C)=CCC/C(C)=C/CCC1(C)C=Cc2c(c3ccccc3oc2=O)O1 (configuration not stated)', 'GI50', '17.4 µM (inactive)'),
  ('Cc1cccc(NC(=O)CCl)c1', 'GI50', '> 10 µM (inactive)'),
  ('CCCCCCCCCCCNC=O', 'GI50', '24.8 µM (inactive)');

Consider the additional compound presented here.
Field GI50 (entry CC(=O)/N=C1\NC(=O)/C(=C/c2ccc(/C=C3/C(=O)N/C(=N\C(C)=O)N3C)cc2)N1C ) reads > 100 µM (inactive)
